Target: Protein kinase C alpha type (Homo sapiens)
readout_kind: IC50 (nM)
Give the number; nM is assumed, so skip it.

Documented IC50 of CC(=O)C1=C(O)C=C2Oc3c(C(N)=O)c(O)cc(O)c3[C@]2(C)C1=O : 1020

====

Tested on: Mus musculus
Experiment: Antihyperglycemic activity in hyperglycemic KK/Ta mouse assessed as body weight administered with diet in ratio of 0.01% for 1 week measured on day 7
Assay type: ADME, organism-based
Conditions: in vivo, po, 168 h
readout_kind: Activity

Documented Activity of CC(=O)C1=C(O)C=C2Oc3c(C(N)=O)c(O)cc(O)c3[C@]2(C)C1=O : 47 g

====

System: Mus musculus
Experiment: Antihyperglycemic activity in hyperglycemic KK/Ta mouse assessed as food intake administered with diet in ratio of 0.1% for 1 week measured on day 7
Assay type: ADME, organism-based
Conditions: in vivo, po, 168 h
readout_kind: Activity (g/day)
Give the number; g/day is assumed, so skip it.

Documented Activity of CC(=O)C1=C(O)C=C2Oc3c(C(N)=O)c(O)cc(O)c3[C@]2(C)C1=O : 1.89

====

Test system: Mus musculus
Experiment: Antihyperglycemic activity in hyperglycemic KK/Ta mouse assessed as change in plasma glucose level administered with diet in ratio of 0.03% administered for 1 week relative to control
Assay type: functional
readout_kind: Activity (%)
Give the number; % is assumed, so skip it.

Recorded Activity, per entry:
{"compound": "CC(=O)C1=C(O)C=C2Oc3c4c(cc(O)c3[C@]2(C)C1=O)OC(C)(C)NC4=O", "target_or_system": "Mus musculus", "Activity, %": 35}
{"compound": "CC(=O)C1=C(O)C=C2Oc3c4c(cc(O)c3[C@]2(C)C1=O)OC1(CCCCC1)NC4=O", "target_or_system": "Mus musculus", "Activity, %": 38}
{"compound": "CC(=O)C1=C(O)C=C2Oc3c4c(cc(O)c3[C@]2(C)C1=O)OC1(CCCC1)NC4=O", "target_or_system": "Mus musculus", "Activity, %": 7}

// next item, Activity requested
Documented Activity of CC(=O)C1=C(O)C=C2Oc3c4c(cc(O)c3[C@]2(C)C1=O)OC(C)(c1ccccc1)NC4=O (some centres undefined) : 54

====

System: Mus musculus
Test: Antihyperglycemic activity in hyperglycemic KK/Ta mouse assessed as food intake administered with diet in ratio of 0.03% for 1 week measured on day 7
Assay type: ADME, organism-based
Conditions: in vivo, po, 168 h
readout_kind: Activity (g/day)
Give the number; g/day is assumed, so skip it.

Documented Activity of CC(=O)C1=C(O)C=C2Oc3c(C(N)=O)c(O)cc(O)c3[C@]2(C)C1=O : 3.65

====

System: Mus musculus
Assay: Antihyperglycemic activity in hyperglycemic KK/Ta mouse assessed as effect on food intake administered with diet in ratio of 0.1% for 1 week measured on day 7 relative to control
Format: ADME, organism-based
Settings: in vivo, po, 168 h
readout_kind: Activity (%)
Give the number; % is assumed, so skip it.

{"compound": "COc1cc(O)c2c(c1C(N)=O)OC1=CC(O)=C(C(C)=O)C(=O)[C@]12C", "target_or_system": "Mus musculus", "Activity [%]": 37}
{"compound": "CC(=O)C1=C(O)C=C2Oc3c(C(N)=O)c(O)cc(O)c3[C@]2(C)C1=O", "target_or_system": "Mus musculus", "Activity [%]": 34}
{"compound": "CC(=O)C1=C(O)C=C2Oc3c4c(cc(O)c3[C@]2(C)C1=O)OC(C)(C)NC4=O", "target_or_system": "Mus musculus", "Activity [%]": 78}
{"compound": "COc1cc(OC)c2c(c1C(N)=O)OC1=CC(O)=C(C(C)=O)C(=O)[C@]12C", "target_or_system": "Mus musculus", "Activity [%]": 92}
{"compound": "CC1=NOC2C=C3Oc4c(C(N)=O)c(O)cc(O)c4[C@]3(C)C(=O)C12 (some centres not stated)", "target_or_system": "Mus musculus", "Activity [%]": 126}

Mus musculus assay, compound COc1cc(OC)c2c(c1C(=O)N(C)C)OC1=CC(O)=C(C(C)=O)C(=O)[C@]12C , recorded Activity = 95

Mus musculus assay, compound CC(=O)C1=C(O)CC2Oc3c(C(N)=O)c(O)cc(O)c3[C@]2(C)C1=O (some centres not stated) , recorded Activity = 111

====

Test system: Mus musculus
Assay: Antihyperglycemic activity in hyperglycemic KK/Ta mouse assessed as effect on food intake administered with diet in ratio of 0.03% for 1 week measured on day 7 relative to control
Type: ADME, organism-based
Conditions: in vivo, po, 168 h
readout_kind: Activity

{"compound": "CC(=O)C1=C(O)C=C2Oc3c4c(cc(O)c3[C@]2(C)C1=O)OC(C)(c1ccccc1)NC4=O (some centres undefined)", "Activity": "94%"}
{"compound": "CC(=O)C1=C(O)C=C2Oc3c4c(cc(O)c3[C@]2(C)C1=O)OC1(CCCCC1)NC4=O", "Activity": "104%"}
{"compound": "CC(=O)C1=C(O)C=C2Oc3c4c(cc(O)c3[C@]2(C)C1=O)OC1(CCCC1)NC4=O", "Activity": "106%"}

Documented Activity of CC(=O)C1=C(O)C=C2Oc3c4c(cc(O)c3[C@]2(C)C1=O)OC(C)(C)NC4=O : 92%

====

Molecular target: Protein kinase C gamma type (Homo sapiens)
readout_kind: IC50 (µM)
Give the number; µM is assumed, so skip it.

Protein kinase C gamma type (Homo sapiens) assay, compound CC(=O)C1=C(O)C=C2Oc3c(C(N)=O)c(O)cc(O)c3[C@]2(C)C1=O , recorded IC50 = 5.8

====

System: Mus musculus
Assay: Antihyperglycemic activity in hyperglycemic KK/Ta mouse assessed as food intake administered with diet in ratio of 0.003% for 1 week measured on day 7
Assay type: ADME, organism-based
Settings: in vivo, po, 168 h
readout_kind: Activity (g/day)
Give the number; g/day is assumed, so skip it.

Documented Activity of CC(=O)C1=C(O)C=C2Oc3c(C(N)=O)c(O)cc(O)c3[C@]2(C)C1=O : 5.78

====

Measured Activity, listed per entry for reference.
System: Mus musculus
Test: Antihyperglycemic activity in hyperglycemic KK/Ta mouse assessed as effect on body weight administered with diet in ratio of 0.1% for 1 week measured on day 7 relative to control
Format: ADME, organism-based
Conditions: in vivo, po, 168 h
Give the number; % is assumed, so skip it.

Recorded Activity, per entry:
{"compound": "COc1cc(O)c2c(c1C(N)=O)OC1=CC(O)=C(C(C)=O)C(=O)[C@]12C", "readout_kind": "Activity", "measured_value": 83}
{"compound": "COc1cc(OC)c2c(c1C(N)=O)OC1=CC(O)=C(C(C)=O)C(=O)[C@]12C", "readout_kind": "Activity", "measured_value": 100}
{"compound": "CC1=NOC2C=C3Oc4c(C(N)=O)c(O)cc(O)c4[C@]3(C)C(=O)C12 (some centres not stated)", "readout_kind": "Activity", "measured_value": 102}

Mus musculus assay, compound COc1cc(OC)c2c(c1C(=O)N(C)C)OC1=CC(O)=C(C(C)=O)C(=O)[C@]12C , recorded Activity = 96

Mus musculus assay, compound CC(=O)C1=C(O)C=C2Oc3c4c(cc(O)c3[C@]2(C)C1=O)OC(C)(C)NC4=O , recorded Activity = 102

Mus musculus assay, compound CC(=O)C1=C(O)CC2Oc3c(C(N)=O)c(O)cc(O)c3[C@]2(C)C1=O (some centres not stated) , recorded Activity = 101

Mus musculus assay, compound CC(=O)C1=C(O)C=C2Oc3c(C(N)=O)c(O)cc(O)c3[C@]2(C)C1=O , recorded Activity = 83

====

Target: Protein kinase C beta type (Homo sapiens)
Sequence (P05771 whole entry): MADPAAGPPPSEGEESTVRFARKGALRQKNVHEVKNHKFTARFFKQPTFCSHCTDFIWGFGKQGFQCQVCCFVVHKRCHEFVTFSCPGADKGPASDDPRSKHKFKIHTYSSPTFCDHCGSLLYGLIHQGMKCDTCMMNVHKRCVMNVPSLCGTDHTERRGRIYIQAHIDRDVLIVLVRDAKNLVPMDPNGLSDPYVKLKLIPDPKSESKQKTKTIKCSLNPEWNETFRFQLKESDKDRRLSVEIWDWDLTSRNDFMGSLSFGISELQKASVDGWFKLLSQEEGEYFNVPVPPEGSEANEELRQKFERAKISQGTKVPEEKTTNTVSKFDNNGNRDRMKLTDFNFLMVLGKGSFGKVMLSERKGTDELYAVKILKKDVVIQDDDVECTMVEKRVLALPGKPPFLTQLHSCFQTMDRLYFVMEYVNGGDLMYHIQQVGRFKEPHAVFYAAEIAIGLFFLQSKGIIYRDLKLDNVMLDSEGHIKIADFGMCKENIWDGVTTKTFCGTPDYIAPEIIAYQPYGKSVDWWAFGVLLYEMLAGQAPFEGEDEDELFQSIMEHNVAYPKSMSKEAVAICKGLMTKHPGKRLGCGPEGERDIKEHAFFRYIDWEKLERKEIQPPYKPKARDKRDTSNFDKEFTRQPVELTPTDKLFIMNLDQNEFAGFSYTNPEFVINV
readout_kind: pIC50
Please keep in mind that pIC50 is minus log10 of the molar concentration; only the number is needed.

Protein kinase C beta type (Homo sapiens) assay, compound CC(=O)C1=C(O)C=C2Oc3c(C(N)=O)c(O)cc(O)c3[C@]2(C)C1=O , recorded pIC50 = 6.46

====

System: Mus musculus
Test: Antihyperglycemic activity in hyperglycemic KK/Ta mouse assessed as body weight administered with diet in ratio of 0.03% for 1 week measured on day 7
Type: ADME, organism-based
Conditions: in vivo, po, 168 h
readout_kind: Activity (g)
Give the number; g is assumed, so skip it.

Documented Activity of CC(=O)C1=C(O)C=C2Oc3c(C(N)=O)c(O)cc(O)c3[C@]2(C)C1=O : 45.9

====

Tested on: Mus musculus
Experiment: Antihyperglycemic activity in hyperglycemic KK/Ta mouse assessed as effect on body weight administered with diet in ratio of 0.03% for 1 week measured on day 7 relative to control
Type: ADME, organism-based
Conditions: in vivo, po, 168 h
Measured Activity, listed per entry for reference.
Give the number; % is assumed, so skip it.

{"compound": "CC(=O)C1=C(O)C=C2Oc3c4c(cc(O)c3[C@]2(C)C1=O)OC(C)(c1ccccc1)NC4=O (some centres undefined)", "measured_value": 100}
{"compound": "CC(=O)C1=C(O)C=C2Oc3c4c(cc(O)c3[C@]2(C)C1=O)OC(C)(C)NC4=O", "measured_value": 102}
{"compound": "CC(=O)C1=C(O)C=C2Oc3c4c(cc(O)c3[C@]2(C)C1=O)OC1(CCCCC1)NC4=O", "measured_value": 104}

// next item, Activity requested
Documented Activity of CC(=O)C1=C(O)C=C2Oc3c4c(cc(O)c3[C@]2(C)C1=O)OC1(CCCC1)NC4=O : 102
